Ref: patent US8980077B2

# test-summary: Stability in 17% MSA/water at 50° C., visual inspection for precipitation
# stated-conditions: 5 mg in 1 mL 17% MSA/water, time without precipitation
reported-property: Stability (at 50° C.)

| compound | endpoint-result |
| --- | --- |
| O=S(=O)(O)CCSCCCSCCS(=O)(=O)O [Compound 11] | >3 weeks |
| OCCSCCSCCO [Comparative 1, reference compound] | <24 h |
| OCCCSCCSCCCO [Compound 6] | >3 weeks |
| O=S(=O)(O)CCCSCCCSCCCS(=O)(=O)O [Compound 12] | >3 weeks |
| OCCSCSCCO [Comparative 2, reference compound] | <1 week |
| O=C(O)CSCCCSCC(=O)O [Compound 10] | >3 weeks |
| O=C(O)CC(SCSC(CC(=O)O)C(=O)O)C(=O)O (stereo not drawn) [Compound 9] | >3 weeks |
| O=C(O)CSCSCC(=O)O [Compound 8] | >3 weeks |
| OCCCSCSCCCO [Compound 7] | >3 weeks |
